// provenance: ChEMBL document CHEMBL5463725

- measured.target: Muscarinic acetylcholine receptor M3 (Homo sapiens)
- Sequence (P20309 whole entry): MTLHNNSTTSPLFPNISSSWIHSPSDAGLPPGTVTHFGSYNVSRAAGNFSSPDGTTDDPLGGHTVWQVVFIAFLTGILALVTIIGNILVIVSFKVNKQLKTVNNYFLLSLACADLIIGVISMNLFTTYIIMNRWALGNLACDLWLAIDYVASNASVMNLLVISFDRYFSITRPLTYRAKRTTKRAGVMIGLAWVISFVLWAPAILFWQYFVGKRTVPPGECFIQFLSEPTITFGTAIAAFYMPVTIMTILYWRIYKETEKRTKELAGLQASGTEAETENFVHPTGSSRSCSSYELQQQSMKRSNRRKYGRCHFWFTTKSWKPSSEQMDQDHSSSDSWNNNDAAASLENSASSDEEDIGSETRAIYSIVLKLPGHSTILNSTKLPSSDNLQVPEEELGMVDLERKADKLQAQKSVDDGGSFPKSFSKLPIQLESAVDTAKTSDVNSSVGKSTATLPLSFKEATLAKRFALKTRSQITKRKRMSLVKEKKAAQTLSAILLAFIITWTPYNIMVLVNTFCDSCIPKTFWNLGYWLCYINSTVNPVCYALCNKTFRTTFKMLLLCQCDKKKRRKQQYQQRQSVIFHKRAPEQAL
- assay.comment: GPCRScan assay: inhibition of M3
- Set-up: radioligand conc. used [nm] 0.3 – 1.0, parental cells stable CHO
- measurement.context: read-out: Ki
test.readout: Ki
Please answer using a numeric value trailed by its unit.

O=C1NCCCC1N1Cc2cc(C3CCN(C(=O)CCCCCN4CCC(c5ccc(Oc6nn7cnnc7c7c6CCCC7)cc5)CC4)CC3)ccc2C1=O (configuration not stated): 1890 nM

Note: attention shifts to another entry.
get_value(item= O=C1CCC(N2Cc3cc(C4CCN(C(=O)CCCCCN5CCC(c6ccc(Oc7nn8cnnc8c8c7CCCC8)cc6)CC5)CC4)ccc3C2=O)C(=O)N1 (configuration not stated) , readout=Ki) returns 2260 nM

---

- measured.target: Muscarinic acetylcholine receptor M5 (Homo sapiens)
- Sequence (P08912 whole entry): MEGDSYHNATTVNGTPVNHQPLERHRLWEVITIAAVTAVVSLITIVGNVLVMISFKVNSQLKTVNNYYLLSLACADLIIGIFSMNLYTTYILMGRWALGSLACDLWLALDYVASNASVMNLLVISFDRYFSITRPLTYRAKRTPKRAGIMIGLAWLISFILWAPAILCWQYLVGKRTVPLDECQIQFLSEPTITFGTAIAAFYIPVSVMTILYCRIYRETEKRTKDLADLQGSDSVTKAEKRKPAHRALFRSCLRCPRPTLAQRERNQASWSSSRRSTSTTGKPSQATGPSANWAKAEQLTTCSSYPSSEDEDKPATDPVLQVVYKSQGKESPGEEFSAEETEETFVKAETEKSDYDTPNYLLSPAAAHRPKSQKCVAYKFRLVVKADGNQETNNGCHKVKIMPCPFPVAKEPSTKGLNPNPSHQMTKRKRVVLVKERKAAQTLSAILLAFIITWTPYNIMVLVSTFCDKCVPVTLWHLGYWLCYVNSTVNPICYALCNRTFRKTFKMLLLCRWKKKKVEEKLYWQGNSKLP
- assay.comment: GPCRScan assay: inhibition of M5
- Set-up: radioligand conc. used [nm] 0.2 – 1.0, parental cells stable CHO
- measurement.context: read-out: Ki
test.readout: Ki (nM)
Answers are plain numbers, in nM.

Ki in this record for O=C1CCC(N2Cc3cc(C4CCN(C(=O)CCCCCN5CCC(c6ccc(Oc7nn8cnnc8c8c7CCCC8)cc6)CC5)CC4)ccc3C2=O)C(=O)N1 (stereo unspecified) : 568

---

- measured.target: D(3) dopamine receptor (Homo sapiens, UniProt P35462)
- Sequence (P35462 whole entry): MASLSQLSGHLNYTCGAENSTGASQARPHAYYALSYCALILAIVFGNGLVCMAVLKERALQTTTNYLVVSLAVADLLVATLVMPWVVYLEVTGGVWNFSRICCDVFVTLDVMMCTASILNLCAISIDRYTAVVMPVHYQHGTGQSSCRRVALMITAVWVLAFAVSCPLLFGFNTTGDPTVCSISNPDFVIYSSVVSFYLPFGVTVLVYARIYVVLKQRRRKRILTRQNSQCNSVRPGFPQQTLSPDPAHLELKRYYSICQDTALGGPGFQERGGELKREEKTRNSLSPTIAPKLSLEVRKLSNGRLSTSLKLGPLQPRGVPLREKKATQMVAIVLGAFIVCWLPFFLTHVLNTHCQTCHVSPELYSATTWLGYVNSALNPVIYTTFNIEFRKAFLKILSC
- assay.comment: GPCRScan assay: inhibition of D3
- Design: radioligand conc. used [nm] 0.5 – 1.8, parental cells HEKT
- measurement.context: read-out: Ki
test.readout: Ki (nM)
One number for each entry, in nM.

Per the reported D(3) dopamine receptor (Homo sapiens, UniProt P35462) data, O=C1NCCCC1N1Cc2cc(C3CCN(C(=O)CCCCCN4CCC(c5ccc(Oc6nn7cnnc7c7c6CCCC7)cc5)CC4)CC3)ccc2C1=O (stereo unspecified) has Ki of 525

---

- measured.target: Monoamine oxidase A (MAO-A) (Homo sapiens, UniProt P21397)
- Sequence (P21397 whole entry): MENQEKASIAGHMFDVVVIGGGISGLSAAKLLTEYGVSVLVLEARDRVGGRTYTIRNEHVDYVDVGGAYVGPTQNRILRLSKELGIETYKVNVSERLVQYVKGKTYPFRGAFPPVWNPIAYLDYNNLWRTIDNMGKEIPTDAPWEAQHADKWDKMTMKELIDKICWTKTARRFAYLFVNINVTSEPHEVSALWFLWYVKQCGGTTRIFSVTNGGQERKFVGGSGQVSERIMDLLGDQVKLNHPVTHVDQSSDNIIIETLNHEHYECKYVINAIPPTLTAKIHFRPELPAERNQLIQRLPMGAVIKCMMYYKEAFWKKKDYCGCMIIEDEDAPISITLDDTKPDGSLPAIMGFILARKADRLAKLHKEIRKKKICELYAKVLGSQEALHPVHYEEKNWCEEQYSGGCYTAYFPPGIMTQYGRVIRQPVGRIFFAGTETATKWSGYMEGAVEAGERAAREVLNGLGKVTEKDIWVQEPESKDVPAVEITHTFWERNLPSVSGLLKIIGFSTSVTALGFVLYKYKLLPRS
- assay.comment: Inhibition of Monoamine Oxidase MAO-A at 10.0 µM in the Eurofins Panlabs Safety Screen
- measurement.context: compound concentration 10 uM
test.readout: inhibition at 10 µM (%)
One number for each entry, in %.

O=C1CCC(N2Cc3cc(C4CCN(C(=O)CCCCCN5CCC(c6ccc(Oc7nn8cnnc8c8c7CCCC8)cc6)CC5)CC4)ccc3C2=O)C(=O)N1 (configuration not stated): 16

We now examine a further compound.
O=C1NCCCC1N1Cc2cc(C3CCN(C(=O)CCCCCN4CCC(c5ccc(Oc6nn7cnnc7c7c6CCCC7)cc5)CC4)CC3)ccc2C1=O (configuration not stated) yielded inhibition at 10 µM of 18
